Exercise: state measured Kb for each of the molecules provided.
# TEST_TARGET: Human OX2 receptor (Homo sapiens, UniProt O43614)
# Sequence (O43614 whole entry): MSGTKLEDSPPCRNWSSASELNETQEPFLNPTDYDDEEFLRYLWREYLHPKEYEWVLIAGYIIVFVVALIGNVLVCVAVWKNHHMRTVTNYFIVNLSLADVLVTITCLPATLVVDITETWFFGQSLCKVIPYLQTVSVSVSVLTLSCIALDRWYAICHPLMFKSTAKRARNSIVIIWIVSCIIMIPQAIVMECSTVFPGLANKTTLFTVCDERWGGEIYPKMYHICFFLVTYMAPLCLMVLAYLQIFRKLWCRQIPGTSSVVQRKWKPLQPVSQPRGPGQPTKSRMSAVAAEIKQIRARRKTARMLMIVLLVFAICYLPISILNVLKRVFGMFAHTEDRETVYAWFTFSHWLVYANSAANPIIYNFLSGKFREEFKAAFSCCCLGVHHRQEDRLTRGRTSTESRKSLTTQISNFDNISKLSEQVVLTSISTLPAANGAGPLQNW
# PROCEDURE_TEXT: IPone accumulation assay, CHO cells expressing human OX2 receptor
# Type: cell-based
# MEASUREMENT_CONTEXT: antagonism of orexin A (EC80) induced inositol phosphate turnover, read-out: fpKb average OX2

Request: Record O=C(N[C@H]1CCC[C@@H]1COc1ccc(F)cc1)c1c(F)cccc1-n1nccn1 : what is its Kb with Human OX2 receptor (Homo sapiens, UniProt O43614)?
Result: > 2 µM

Request: Record COCc1ccc(-n2nccn2)c(C(=O)N[C@H]2CCC[C@@H]2COc2ccc(F)cc2)n1 : what is its Kb with Human OX2 receptor (Homo sapiens, UniProt O43614)?
Result: > 1.26 µM

Request: Record O=C(N[C@H]1CCC[C@@H]1COc1ccc(F)cc1)c1ccccc1-n1nccn1 : what is its Kb with Human OX2 receptor (Homo sapiens, UniProt O43614)?
Result: > 1.58 µM

Request: Record O=C(N[C@H]1CCC[C@@H]1COc1ccc(F)cc1F)c1ncccc1-c1ncccn1 : what is its Kb with Human OX2 receptor (Homo sapiens, UniProt O43614)?
Result: > 0.794 µM

Request: Record O=C(N[C@H]1CCC[C@@H]1COc1ccc(F)cc1)c1c(OC(F)F)cccc1-n1nccn1 : what is its Kb with Human OX2 receptor (Homo sapiens, UniProt O43614)?
Result: > 0.398 µM

Request: Record COc1cccc(-n2nccn2)c1C(=O)N[C@H]1CCC[C@@H]1COc1ccc(F)cc1 : what is its Kb with Human OX2 receptor (Homo sapiens, UniProt O43614)?
Result: > 0.501 µM

Request: Record COc1nccc(-n2nccn2)c1C(=O)N[C@H]1CCC[C@@H]1COc1ccc(F)cc1 : what is its Kb with Human OX2 receptor (Homo sapiens, UniProt O43614)?
Result: > 0.631 µM

Request: Record COc1nccc(-c2ncccn2)c1C(=O)N[C@H]1CCC[C@@H]1COc1ccc(F)cc1 : what is its Kb with Human OX2 receptor (Homo sapiens, UniProt O43614)?
Result: > 0.631 µM

src = patent US12331029B2
